# target desc: T1, Duck egg lysozyme (DEL), D65N + N103D double mutant of the DEL-II isoform (Anas platyrhynchos, DEL-II double mutant, strain)
# T1 construct: duck egg lysozyme, DEL-II isoform, D65N + N103D double mutant; differs from HEL3X at 25 amino acids; source: Pichia pastoris, secreted, purified from culture supernatant (ion exchange)
# T1 chain: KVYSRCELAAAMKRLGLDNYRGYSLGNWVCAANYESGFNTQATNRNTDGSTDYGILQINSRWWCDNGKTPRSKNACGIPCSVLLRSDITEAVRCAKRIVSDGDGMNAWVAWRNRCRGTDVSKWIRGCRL
# procedure text: BLI; BLItz (ForteBio); biotinylated Hy10 Fab variant immobilised on streptavidin biosensors (rehydrated in PBS with 0.1% wt/vol BSA); soluble monomeric lysozyme antigen as analyte at a range of concentrations; global fit, 1:1 Fab-lysozyme interaction
# conditions used: both partners purified
readout type: Ka
For clarity, give the value followed by its unit.

Request the reported Ka associated with HyHEL10 (Hy10) Fab, WT founder (Fab, V domains shown, heavy chain of Hy10 Fab; light chain of Hy10 Fab; also called Hy10WT; source: Expi293, transient (pCEP4), purified (Talon resin, gel filtration)) VH: DVQLQESGPSLVKPSQTLSLTCSVTGDSITSDYWSWIRKFPGNRLEYMGYVSYSGSTYYNPSLKSRISITRDTSKNQYYLDLNSVTTEDTATYYCANWDGDYWGQGTLVTVSA VL: DIVLTQSPATLSVTPGNSVSLSCRASQSIGNNLHWYQQKSHESPRLLIKYASQSISGIPSRFSGSGSGTDFTLSINSVETEDFGMYFCQQSNSWPYTFGGGTKLEIK 2.49e+07 M⁻¹

Now the binder Hy10 Fab S52T (Fab, V domains shown, as the heavy chain of Dm5 with the stated changes; as the light chain of Dm5; source: Expi293, transient (pCEP4), purified (Talon resin, gel filtration)) VH: DVQLQESGPSLVKPSQTLSLTCSVTGDSITSDYWSWIRKFPGNRLEYMGYVTYSGSTYYNPSLKSRISITRDTSKNQYYLDLNSVTTEDTATYYCANWDGDYWGQGTLVTVSA VL: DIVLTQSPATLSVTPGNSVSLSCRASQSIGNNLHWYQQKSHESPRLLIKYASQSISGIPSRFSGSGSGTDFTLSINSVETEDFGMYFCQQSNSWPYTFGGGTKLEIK 2.98e+07 M⁻¹

Now the binder Hy10 Fab S31N (Fab, V domains shown, as the heavy chain of Dm5 with the stated changes; as the light chain of Dm5; source: Expi293, transient (pCEP4), purified (Talon resin, gel filtration)) VH: DVQLQESGPSLVKPSQTLSLTCSVTGDSITNDYWSWIRKFPGNRLEYMGYVSYSGSTYYNPSLKSRISITRDTSKNQYYLDLNSVTTEDTATYYCANWDGDYWGQGTLVTVSA VL: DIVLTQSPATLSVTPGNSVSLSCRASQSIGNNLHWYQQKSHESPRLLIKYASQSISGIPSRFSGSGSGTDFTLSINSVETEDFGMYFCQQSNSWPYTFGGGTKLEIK 9.6e+06 M⁻¹

Value source: paper PMC7486785
